Test: in vitro
Conditions: human, HepG2 cells; n = 1
Answer each item with its documented CC50 at 48 h.
Answers are plain numbers, in µM.

Examples with answers:
Cc1nn2c(c1-c1ccccc1-c1ccccc1)N(CCC(C)C)CCC2 [NCGC00420437-01] | 19.8
Cc1nn2c(c1-c1ccccc1-c1ccccc1)N(Cc1ccc(O)cc1)CCC2 [NCGC00420512-01] | 28
CCCC(=O)NC(c1ccccc1)c1ccc2cccnc2c1O (stereo not shown) [MLS001204078-01] | 12.2

As a next step, examine the molecule that follows.
Reported CC50 at 48 h of CCOC(=O)c1cnc(-n2nc(C)cc2C)nc1NNc1nc(-c2ccccc2)cc(-c2ccccc2)n1 [MLS000580862-01] : 19.3

====

Test system: HepG2-A16-CD81EGFP cells
Details: nominal 3 uM (10 mM stock); 4.5 uM for 15 mM, 3.6 uM for 12 mM, 6 uM for 20 mM stock; average of 2 wells; repeat 2
Answer each item with its documented HepG2 viability signal, 3 uM, repeat 2.

Cc1nn2c(c1-c1ccccc1-c1ccccc1)N(Cc1ccc(O)cc1)CCC2 | 110.31%
CCN1CCN(C(=O)c2ccc3c(c2)N(Cc2ccccc2F)C(=O)c2ccccc2[S+]3[O-])CC1 (stereo not shown) | 97.54%
O=C(Nc1ccc2c(N3CCCC3)ncnc2c1)c1cccc(F)c1 | 95.12%

Would you mind giving HepG2 viability signal, 3 uM, repeat 2 for every compound in the list below?
1. CCCCCn1c(=N)n(CC(O)COc2cccc(C)c2)c2ccccc21 (stereo not shown)
2. COc1ccc(CN2CCCn3nc(C)c(-c4ccccc4Oc4ccccc4)c32)cc1O
3. CC(C)c1ccccc1Oc1c(C(F)(F)F)oc2c(CN3CCN(C)CC3)c(O)ccc2c1=O

["100.64%", "103.00%", "99.40%"]

Would you mind giving HepG2 viability signal, 3 uM, repeat 2 for every compound in the list below?
1. Cc1nn2c(c1-c1ccccc1Oc1ccccc1)N(Cc1ccccc1O)CCC2
2. CC1=C(C(=O)Nc2ccc(C)cc2C)C(c2ccc([N+](=O)[O-])cc2)n2ncc(C(=O)Nc3ccc(F)cc3)c2N1 (stereo not shown)
3. CC1=C[C@@H](CNCc2cccnc2)[C@H](C(C)C)C[C@H]1Cc1nnc(-c2ccc([N+](=O)[O-])cc2)o1

1. 116.91%
2. 92.77%
3. 86.98%

Would you mind giving HepG2 viability signal, 3 uM, repeat 2 for every compound in the list below?
1. CCc1ccc(Oc2c(C(F)(F)F)oc3c(CN4CCN(CC)CC4)c(O)ccc3c2=O)cc1
2. COc1ccccc1NC(=O)N1CCOc2ccc(CN3CCc4ccccc4C3)cc2C1
3. CCOC(=O)c1ccc(NC2=CC(c3ccc(O)c(OCC)c3)N(c3ccc(C(=O)OCC)cc3)C2=O)cc1 (stereo not shown)
4. COc1ccc2[nH]c(C[C@@H]3C[C@@H](C(C)C)[C@H](CNCc4ccccc4OC)C=C3C)nc2c1
5. Cc1ccccc1CC(=O)NCc1nnc2cc(-c3nc(C4CC4)no3)ccn12
6. Cc1ccc(CN2COc3cc(C)c4c(oc(=O)c5ccccc54)c3C2)cc1
7. O=C(O)c1ccc(-c2nc3cnccc3[nH]2)cc1

1. 94.20%
2. 96.50%
3. 102.23%
4. 97.57%
5. 101.49%
6. 104.67%
7. 103.76%
